Hi there, I'd appreciate the recorded Ki for every entry that follows.
target: Calpain; assay: Calpain enzyme assay; details: Ki by Morrison equation; pH 7.5, 5 mM CaCl2
Please give a number only; it is taken to be in nM.

Lab note: measured Ki of CCC(C)C(NC(=O)C(=O)C(C)NC(=O)C(Cc1ccccc1)NC(=O)Cc1ccc(-c2ccccc2)cc1)C(=O)NC(C)(C)C(=O)O (stereo not drawn) was 16600

Noted for CCC(C)C(NC(=O)C(CC(C)C)NC(=O)OCc1ccccc1)C(=O)C(=O)NC(Cc1ccc2ccccc2c1)C(=O)N(C)C (stereo not drawn) : its Ki reads 44.1

CCC(C)C(NC(=O)C(CC(C)C)NC(=O)OCc1ccccc1)C(=O)C(=O)N1CC(C(=O)NCc2ccc3ccccc3c2)C1 (stereo not drawn) yielded Ki of 178
